Data origin: patent US20220409727A1

// mouse colon carcinoma (CT-26) cells IC50 records
Please state the figure in µM; there is no need to write the unit.

# lookup: "CN(C)c1ccc(/C=C/c2ccnc(-c3cc(/C=C/c4ccc(N(C)C)cc4)ccn3)c2)cc1.F[P-](F)(F)(F)(F)F.F[P-](F)(F)(F)(F)F.[Ru+2].c1cnc2c(c1)ccc1cccnc12.c1cnc2c(c1)ccc1cccnc12" on mouse colon carcinoma (CT-26) cells, IC50 = 8.2

mouse colon carcinoma (CT-26) cells assay, compound "COc1ccc(/C=C/c2ccnc(-c3cc(/C=C/c4ccc(OC)cc4)ccn3)c2)cc1.F[P-](F)(F)(F)(F)F.F[P-](F)(F)(F)(F)F.[Ru+2].c1cnc2c(c1)ccc1cccnc12.c1cnc2c(c1)ccc1cccnc12" , recorded IC50 = 1.1

----------
Experiment: Emission measurement in CH3CN
Assay type: physicochemical
Conditions: room temperature, excitation at 355 nm
measuredEndpoint: λem/nm (Emission maximum) (nm)
Write the number in nm without appending the unit.

Notebook: "CN(C)c1ccc(/C=C/c2ccnc(-c3cc(/C=C/c4ccc(N(C)C)cc4)ccn3)c2)cc1.F[P-](F)(F)(F)(F)F.F[P-](F)(F)(F)(F)F.[Ru+2].c1ccc(-c2ccccn2)nc1.c1ccc(-c2ccccn2)nc1" , λem/nm (Emission maximum) read as 697

Notebook: "COc1ccc(/C=C/c2ccnc(-c3cc(/C=C/c4ccc(OC)cc4)ccn3)c2)cc1.F[P-](F)(F)(F)(F)F.F[P-](F)(F)(F)(F)F.[Ru+2].c1cnc2c(c1)ccc1cccnc12.c1cnc2c(c1)ccc1cccnc12" , λem/nm (Emission maximum) read as 663

λem/nm (Emission maximum) in this record for "COc1ccc(/C=C/c2ccnc(-c3cc(/C=C/c4ccc(OC)cc4)ccn3)c2)cc1.COc1ccc(/C=C/c2ccnc(-c3cc(/C=C/c4ccc(OC)cc4)ccn3)c2)cc1.COc1ccc(/C=C/c2ccnc(-c3cc(/C=C/c4ccc(OC)cc4)ccn3)c2)cc1.F[P-](F)(F)(F)(F)F.F[P-](F)(F)(F)(F)F.[Ru+2]" : 682

Field λem/nm (Emission maximum) (entry "COc1ccc(/C=C/c2ccnc(-c3cc(/C=C/c4ccc(OC)cc4)ccn3)c2)cc1.COc1ccc(/C=C/c2ccnc(-c3cc(/C=C/c4ccc(OC)cc4)ccn3)c2)cc1.F[P-](F)(F)(F)(F)F.F[P-](F)(F)(F)(F)F.[Ru+2].c1ccc(-c2ccccn2)nc1" ) reads 674

----------
Test system: human glioblastoma astrocytoma (U373) cells
Assay: (Photo-)cytotoxicity on 2D cell monolayers, resazurin assay, U373
Conditions: U373, dark vs 540 nm (40 min, 9.5 J/cm^2)
Provide the reported PI (540 nm) of each item.

What the record says about "CN(C)c1ccc(/C=C/c2ccnc(-c3cc(/C=C/c4ccc(N(C)C)cc4)ccn3)c2)cc1.CN(C)c1ccc(/C=C/c2ccnc(-c3cc(/C=C/c4ccc(N(C)C)cc4)ccn3)c2)cc1.CN(C)c1ccc(/C=C/c2ccnc(-c3cc(/C=C/c4ccc(N(C)C)cc4)ccn3)c2)cc1.F[P-](F)(F)(F)(F)F.F[P-](F)(F)(F)(F)F.[Ru+2]" : PI (540 nm) is >1.6

Record C=CC1=C(C)c2cc3[nH]c(cc4nc(cc5[nH]c(cc1n2)c(C)c5CCC(=O)O)C(CCC(=O)O)=C4C)c(C)c3C=C [PpIX, Protoporphyrin IX, reference compound] . Reported PI (540 nm): 8.4

Record summary for "COc1ccc(/C=C/c2ccnc(-c3cc(/C=C/c4ccc(OC)cc4)ccn3)c2)cc1.F[P-](F)(F)(F)(F)F.F[P-](F)(F)(F)(F)F.[Ru+2].c1cnc2c(c1)ccc1cccnc12.c1cnc2c(c1)ccc1cccnc12" : reported PI (540 nm) = >47.6

Entry "COc1ccc(/C=C/c2ccnc(-c3cc(/C=C/c4ccc(OC)cc4)ccn3)c2)cc1.COc1ccc(/C=C/c2ccnc(-c3cc(/C=C/c4ccc(OC)cc4)ccn3)c2)cc1.COc1ccc(/C=C/c2ccnc(-c3cc(/C=C/c4ccc(OC)cc4)ccn3)c2)cc1.F[P-](F)(F)(F)(F)F.F[P-](F)(F)(F)(F)F.[Ru+2]" ; PI (540 nm) = >1.9

So, "CN(C)c1ccc(/C=C/c2ccnc(-c3cc(/C=C/c4ccc(N(C)C)cc4)ccn3)c2)cc1.CN(C)c1ccc(/C=C/c2ccnc(-c3cc(/C=C/c4ccc(N(C)C)cc4)ccn3)c2)cc1.F[P-](F)(F)(F)(F)F.F[P-](F)(F)(F)(F)F.[Ru+2].c1ccc(-c2ccccn2)nc1" ? Its PI (540 nm) was >5.3

Reported PI (540 nm) ( "CN(C)c1ccc(/C=C/c2ccnc(-c3cc(/C=C/c4ccc(N(C)C)cc4)ccn3)c2)cc1.F[P-](F)(F)(F)(F)F.F[P-](F)(F)(F)(F)F.[Ru+2].c1cnc2c(c1)ccc1cccnc12.c1cnc2c(c1)ccc1cccnc12" ) = >7.5

For "COc1ccc(/C=C/c2ccnc(-c3cc(/C=C/c4ccc(OC)cc4)ccn3)c2)cc1.COc1ccc(/C=C/c2ccnc(-c3cc(/C=C/c4ccc(OC)cc4)ccn3)c2)cc1.F[P-](F)(F)(F)(F)F.F[P-](F)(F)(F)(F)F.[Ru+2].c1ccc(-c2ccccn2)nc1" the compound record lists PI (540 nm) as >5.6
